Provenance of the data: ChEMBL document CHEMBL5463722

# TESTED SYSTEM: L-type calcium channel (Cav1.2, alpha-1C), CA+/VERSI/R (Rattus norvegicus)
# Sequence (P22002 whole entry): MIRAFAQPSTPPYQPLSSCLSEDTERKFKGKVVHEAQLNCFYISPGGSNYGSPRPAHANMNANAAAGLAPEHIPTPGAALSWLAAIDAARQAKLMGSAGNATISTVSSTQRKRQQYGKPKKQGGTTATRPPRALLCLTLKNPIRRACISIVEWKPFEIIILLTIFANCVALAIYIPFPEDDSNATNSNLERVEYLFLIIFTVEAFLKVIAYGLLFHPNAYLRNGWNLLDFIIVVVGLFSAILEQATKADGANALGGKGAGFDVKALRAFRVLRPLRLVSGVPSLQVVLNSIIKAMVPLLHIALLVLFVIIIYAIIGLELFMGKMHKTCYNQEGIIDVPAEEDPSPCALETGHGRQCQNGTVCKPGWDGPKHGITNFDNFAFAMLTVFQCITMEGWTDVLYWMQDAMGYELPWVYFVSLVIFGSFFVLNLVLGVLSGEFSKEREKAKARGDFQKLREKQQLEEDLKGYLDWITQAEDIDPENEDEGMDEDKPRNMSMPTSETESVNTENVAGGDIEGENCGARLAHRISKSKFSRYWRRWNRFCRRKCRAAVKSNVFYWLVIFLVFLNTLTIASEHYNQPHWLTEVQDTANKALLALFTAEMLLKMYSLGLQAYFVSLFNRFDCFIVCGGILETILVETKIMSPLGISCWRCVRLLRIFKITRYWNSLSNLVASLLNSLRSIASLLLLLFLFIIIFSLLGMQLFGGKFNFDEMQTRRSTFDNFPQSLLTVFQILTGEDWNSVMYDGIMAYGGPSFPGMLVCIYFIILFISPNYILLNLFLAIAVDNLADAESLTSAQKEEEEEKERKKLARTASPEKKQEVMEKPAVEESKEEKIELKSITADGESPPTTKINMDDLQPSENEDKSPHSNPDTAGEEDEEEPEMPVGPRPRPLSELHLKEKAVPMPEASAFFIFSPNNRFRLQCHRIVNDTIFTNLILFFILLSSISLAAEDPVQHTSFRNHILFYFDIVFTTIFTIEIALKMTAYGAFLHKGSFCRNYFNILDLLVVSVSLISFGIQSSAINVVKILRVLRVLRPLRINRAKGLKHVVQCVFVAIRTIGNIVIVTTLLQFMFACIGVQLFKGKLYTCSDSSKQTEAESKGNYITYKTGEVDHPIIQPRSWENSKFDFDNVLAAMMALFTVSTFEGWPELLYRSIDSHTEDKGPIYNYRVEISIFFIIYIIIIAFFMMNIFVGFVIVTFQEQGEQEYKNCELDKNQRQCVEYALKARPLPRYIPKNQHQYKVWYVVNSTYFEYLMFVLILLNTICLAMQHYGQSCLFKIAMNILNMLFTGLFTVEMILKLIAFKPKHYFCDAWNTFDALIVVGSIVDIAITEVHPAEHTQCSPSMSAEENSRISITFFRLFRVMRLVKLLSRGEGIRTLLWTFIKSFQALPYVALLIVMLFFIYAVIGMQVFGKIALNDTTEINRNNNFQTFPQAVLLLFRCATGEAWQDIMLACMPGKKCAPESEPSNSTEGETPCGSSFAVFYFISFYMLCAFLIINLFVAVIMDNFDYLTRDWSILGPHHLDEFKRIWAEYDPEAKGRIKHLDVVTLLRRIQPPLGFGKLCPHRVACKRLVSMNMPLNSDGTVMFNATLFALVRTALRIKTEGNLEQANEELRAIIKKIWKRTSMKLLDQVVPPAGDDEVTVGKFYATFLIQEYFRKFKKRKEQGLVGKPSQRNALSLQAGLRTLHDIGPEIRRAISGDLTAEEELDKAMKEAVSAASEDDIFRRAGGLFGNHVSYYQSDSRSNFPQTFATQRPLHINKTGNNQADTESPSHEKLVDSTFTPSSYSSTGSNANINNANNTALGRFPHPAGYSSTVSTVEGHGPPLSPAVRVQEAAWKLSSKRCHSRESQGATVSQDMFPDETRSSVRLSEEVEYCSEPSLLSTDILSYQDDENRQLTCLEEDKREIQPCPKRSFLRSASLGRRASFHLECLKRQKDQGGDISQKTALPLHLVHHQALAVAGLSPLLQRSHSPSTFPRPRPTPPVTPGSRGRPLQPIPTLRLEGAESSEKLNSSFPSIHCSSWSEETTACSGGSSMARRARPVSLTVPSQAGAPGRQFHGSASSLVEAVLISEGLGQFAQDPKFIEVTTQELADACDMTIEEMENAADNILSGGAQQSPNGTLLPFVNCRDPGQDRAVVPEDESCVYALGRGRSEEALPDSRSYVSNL
# MEASUREMENT NOTES: Inhibitor of CA+/VERSI/R in the Eurofins SafetyScreen44 (BI) by Radioactive Assay (Old_Cerep_11)
# Design: scale not given: the % may be the effect or the level left
# ASSAY SETUP: compound concentration 10 uM, read-out: % Ctrl
QUANTITY KIND: activity at 10 µM

Input: Report activity at 10 µM under test system L-type calcium channel (Cav1.2, alpha-1C), CA+/VERSI/R (Rattus norvegicus) for CC(C)(O)CNC(=O)N1C(=O)N(c2cccc(C(F)(F)F)c2)C2=C(C(=O)CC2)[C@H]1c1ccc(C#N)cc1 .
Output: 102% (not active)

* * *

# TESTED SYSTEM: hERG (KCNH2) (Homo sapiens, UniProt Q12809)
# Sequence (Q12809 whole entry): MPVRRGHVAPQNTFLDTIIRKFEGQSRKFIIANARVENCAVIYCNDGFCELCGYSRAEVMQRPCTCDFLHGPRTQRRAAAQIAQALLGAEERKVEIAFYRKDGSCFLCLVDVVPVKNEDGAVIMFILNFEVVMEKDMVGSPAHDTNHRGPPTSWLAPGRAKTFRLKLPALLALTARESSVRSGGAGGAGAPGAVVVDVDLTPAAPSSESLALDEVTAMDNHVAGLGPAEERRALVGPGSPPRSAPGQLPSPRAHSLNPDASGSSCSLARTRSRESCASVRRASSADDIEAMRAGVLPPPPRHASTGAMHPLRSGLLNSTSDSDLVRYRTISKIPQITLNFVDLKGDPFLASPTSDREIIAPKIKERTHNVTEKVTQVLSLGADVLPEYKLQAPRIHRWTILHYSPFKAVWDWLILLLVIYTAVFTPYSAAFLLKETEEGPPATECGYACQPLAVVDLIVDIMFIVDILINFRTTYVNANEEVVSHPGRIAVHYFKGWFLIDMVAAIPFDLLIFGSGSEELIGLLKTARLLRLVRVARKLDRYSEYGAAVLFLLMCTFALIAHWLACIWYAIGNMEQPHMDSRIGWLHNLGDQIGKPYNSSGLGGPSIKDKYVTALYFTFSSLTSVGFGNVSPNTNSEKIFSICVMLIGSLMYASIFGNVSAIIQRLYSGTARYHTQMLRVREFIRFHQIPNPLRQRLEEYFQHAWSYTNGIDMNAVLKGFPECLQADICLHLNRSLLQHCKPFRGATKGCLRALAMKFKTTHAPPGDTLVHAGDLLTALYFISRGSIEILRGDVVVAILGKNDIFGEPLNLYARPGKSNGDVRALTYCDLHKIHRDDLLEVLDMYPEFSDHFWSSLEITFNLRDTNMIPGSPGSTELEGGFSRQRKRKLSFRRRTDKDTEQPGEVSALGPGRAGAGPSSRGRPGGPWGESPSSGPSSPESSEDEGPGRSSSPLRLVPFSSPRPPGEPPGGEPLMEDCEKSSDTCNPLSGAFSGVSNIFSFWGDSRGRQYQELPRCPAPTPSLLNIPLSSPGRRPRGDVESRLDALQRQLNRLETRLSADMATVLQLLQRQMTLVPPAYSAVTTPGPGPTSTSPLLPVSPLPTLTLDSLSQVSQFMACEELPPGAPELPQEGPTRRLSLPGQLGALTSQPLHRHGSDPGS
# MEASUREMENT NOTES: Inhibitor of HERG_DOFETILIDE in the Eurofins Cerep SafetyScreen44 (BI) by Scintillation counting (Cerep_4094)
# Set-up: scale not given: the % may be the effect or the level left
# ASSAY SETUP: probe [3H]dofetilide, compound concentration 10 uM, read-out: % Ctrl
QUANTITY KIND: activity at 10 µM

Input: Report activity at 10 µM under test system hERG (KCNH2) (Homo sapiens, UniProt Q12809) for CC(C)(O)CNC(=O)N1C(=O)N(c2cccc(C(F)(F)F)c2)C2=C(C(=O)CC2)[C@@H]1c1ccc(C#N)cc1 .
Output: 96% (not active)
